molecular target: BRDT (Homo sapiens)
Measured Attribute: IC50 (µM)
One number for each entry, in µM.

IN: Give IC50 (BRDT (Homo sapiens)) of the following compound: CC(=O)N1c2ccc(-c3cc[nH]c3)cc2[C@H](NC(=O)OC(C)C)C[C@@H]1C
OUT: 49

----------
target: BRD2(2) (Homo sapiens (Human)); assay: BROMOscan KD determination; assay type: binding; conditions: BROMOscan KD ratio
Sequence (P25440 344-453): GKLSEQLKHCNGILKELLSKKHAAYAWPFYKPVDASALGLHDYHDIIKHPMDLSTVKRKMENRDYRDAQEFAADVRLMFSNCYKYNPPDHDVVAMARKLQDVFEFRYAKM
Measured Attribute: [2(1)/2(2)]

COC(=O)c1ccc(N[C@@H]2C[C@H](C)N(C(C)=O)c3ccc(-c4ccnn4C)cc32)cc1 [compound 49]    13.5
CC(=O)Nc1cccc(-c2ccc3c(c2)[C@H](Nc2ccc4ncccc4c2)C[C@H](C)N3C(C)=O)c1 [compound 13]    14.0
COC(=O)c1ccc(N[C@@H]2C[C@H](C)N(C(C)=O)c3ccc(-c4cccc(NC(C)=O)c4)cc32)cc1 [compound 4]    36.9

Batch lookup, [2(1)/2(2)] per entry.
1. CCCOc1cccc(-c2ccc3c(c2)[C@H](Nc2ccc(C(=O)OC)cc2)C[C@H](C)N3C(C)=O)c1 [compound 56]
2. CC(=O)N1c2ccc(-c3cccc(-n4cccn4)c3)cc2[C@H](Nc2ccc(Cl)cc2)C[C@@H]1C [compound 136]

OUT:
1: 19.5; 2: 21.9

----------
target: BRD3-BD1 (Homo sapiens (Human)); test: competitive TR-FRET assay, BET-BD with acetylated peptide ligand; type: binding; details: BRD3-BD1; Table 11 additional modifications; read-out: 3.1 EC50
Sequence (Q15059 34-140): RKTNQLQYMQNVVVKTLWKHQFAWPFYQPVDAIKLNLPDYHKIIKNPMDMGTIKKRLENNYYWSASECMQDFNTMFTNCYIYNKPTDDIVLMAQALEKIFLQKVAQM
// assign Yes if EC50 falls strictly below 0.6 µM, else No (ties count as No)

CC(=O)N1c2ccc(-c3cccc([N+](=O)[O-])c3)cc2[C@H](NC(=O)OC(C)C)C[C@@H]1C [compound 58]    No

IN: Strictly below 0.6 µM in EC50? CC(=O)Nc1cccc(-c2ccc3c(c2)[C@H](Nc2ccc(-c4nnn(C)n4)cc2)C[C@H](C)N3C(C)=O)c1 [compound 27]
OUT: Yes

IN: Lab note: EC50 threshold 0.6 µM. Does this compound come in strictly under it? CCCCCN(CCCCC)c1cccc(-c2ccc3c(c2)[C@H](Nc2ccccc2OC(F)(F)F)C[C@H](C)N3C(C)=O)c1 [compound 150]
OUT: No

IN: In the record for CC(=O)N1c2ccc(-c3c[nH]c4ccccc34)cc2[C@H](NC(=O)OC(C)C)C[C@@H]1C [compound 91] , is EC50 less than 0.6 µM?
OUT: No

IN: Regarding COc1cccc(-c2ccc3c(c2)[C@H](NC(=O)OC(C)C)C[C@H](C)N3C(C)=O)c1 [compound 3] , kindly confirm whether its EC50 is beneath 0.6 µM.
OUT: No

IN: Hello, I'm reviewing records and need to know if EC50 of CC(=O)N1c2ccc(-c3cccc(NC(=O)Cc4ccccc4)c3)cc2[C@H](NC(=O)OC(C)C)C[C@@H]1C [compound 110] is below 0.6 µM. Could you check?
OUT: Yes

----------
What pEC50 was measured for each of the following?
biological target: BRD2-BD1 (Homo sapiens (Human), UniProt P25440); experiment: competitive TR-FRET assay, BET-BD with acetylated peptide ligand; type: binding; conditions: BRD2-BD1; Table 11 additional modifications; read-out: 2.1 EC50
Sequence (P25440 74-180): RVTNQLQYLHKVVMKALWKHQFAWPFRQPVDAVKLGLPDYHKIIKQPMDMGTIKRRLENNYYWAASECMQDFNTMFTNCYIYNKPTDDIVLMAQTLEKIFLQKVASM
Give bare numbers, as −log10 of the molar value.

Here are 6 molecules together with their reported answers.
COC(=O)c1ccc(N[C@@H]2C[C@H](C)N(C(C)=O)c3ccc(-c4cccc(OCCN5CCOCC5)c4)cc32)cc1    6.89
CC(=O)Nc1cccc(-c2ccc3c(c2)[C@H](Nc2ccc(C#N)c(C)c2)C[C@H](C)N3C(C)=O)c1    6.06
CC(=O)N1c2ccc(-c3cccc(-n4cccn4)c3)cc2[C@H](NC(=O)OC(C)C)C[C@@H]1C    5.11
CC(=O)Nc1cccc(-c2ccc3c(c2)[C@H](Nc2ccc(-c4nnco4)cc2)C[C@H](C)N3C(C)=O)c1    6.39
CC(=O)Nc1cccc(-c2ccc3c(c2)[C@H](NCc2ccc(C(F)(F)F)cc2)C[C@H](C)N3C(C)=O)c1    4.28
CC(=O)N1c2ccc(-c3c[nH]c4ccccc34)cc2[C@H](NC(=O)OC(C)C)C[C@@H]1C    5.89

Switching to the query record.
IN: What measured pEC50 goes with CC(=O)N1c2ccc(-c3cccc(NCc4ccc(C)cc4)c3)cc2[C@H](NC(=O)OC(C)C)C[C@@H]1C ?
OUT: 5.43
